- ASSAY_NAME: Liver microsome intrinsic clearance (human)
- Assay type: in vitro ADME
- TEST_SETTINGS: pH 7.4; human liver microsomes; read-out: LMS CLINT human
PROPERTY: log10(CLint scaled at 1 µM) (log10 of the value in mL/min/kg)
Quick note: numbers are log10 of CLint scaled at 1 µM, with mL/min/kg as the unit.

The measured log10(CLint scaled at 1 µM) associated with CC(C)(C)OC(=O)Nc1ccc(Cl)c(C(=O)Nc2ncc(C#Cc3ccccc3)cc2F)c1 [Compound 13a] reads 1.00

The recorded log10(CLint scaled at 1 µM) for entry Cc1cc(C#Cc2ccccc2)cnc1NC(=O)c1cc(NC(=O)OC(C)(C)C)ccc1Cl [Compound 11] equals 1.11

For Cc1cc(OCc2ccccc2)cnc1NC(=O)c1cc(NC(=O)OC(C)(C)C)ccc1Cl [Compound 10a] the molecule record lists log10(CLint scaled at 1 µM) as 2.14

Looking up Cc1cc(C#Cc2cccc(F)c2)cnc1NC(=O)c1cc(NC(=O)OC(C)(C)C)ccc1Cl [Compound 14b] , I found its log10(CLint scaled at 1 µM) recorded as 1.30

For record Cc1cc(C#Cc2ccccc2)cnc1NC(=O)c1cc(NC(=O)C2CC2)ccc1Cl [Compound 15a] the listed log10(CLint scaled at 1 µM) is 1.11

GET /value?item= Cc1cc(C#Cc2ccncc2)cnc1NC(=O)c1cc(NC(=O)OC(C)(C)C)ccc1Cl [Compound 14d] &field=log10(CLint scaled at 1 µM) returns 1.43

Record Cc1cc(C#Cc2ccccc2F)cnc1NC(=O)c1cc(NC(=O)OC(C)(C)C)ccc1Cl [Compound 14a] . Reported log10(CLint scaled at 1 µM): 1.11

Just so you know, measured log10(CLint scaled at 1 µM) for Cc1cc(C#Cc2ccc(F)cc2)cnc1NC(=O)c1cc(NC(=O)C2CC2)ccc1Cl [Compound 15b] came out at 1.00

The recorded log10(CLint scaled at 1 µM) for entry Cc1cc(C#Cc2ccc(F)cc2)cnc1NC(=O)c1cc(NC(=O)OC(C)(C)C)ccc1Cl [Compound 14c] equals 0.88

* * *

The next entries give measured IC50 for human TREK-1 (Homo sapiens, UniProt O95069).
Respond with the bare value in nM.

COMPOUND: Cc1cc(OCc2ccccc2)cnc1NC(=O)c1cc(NC(=O)OC(C)(C)C)ccc1Cl [Compound 10a]
IC50 [nM]: 560

For the compound Cc1cc(C#Cc2ccccc2)cnc1NC(=O)c1cc(NC(=O)C2CC2)ccc1Cl [Compound 15a] , the measured IC50 on human TREK-1 (Homo sapiens, UniProt O95069) was 180

For the compound Cc1cc(C#Cc2ccccc2F)cnc1NC(=O)c1cc(NC(=O)OC(C)(C)C)ccc1Cl [Compound 14a] , the measured IC50 on human TREK-1 (Homo sapiens, UniProt O95069) was 540

* * *

- ASSAY_NAME: Liver microsome intrinsic clearance (mouse)
- Assay type: in vitro ADME
- TEST_SETTINGS: pH 7.4; mouse liver microsomes; read-out: LMS CLINT mouse
Collected CLint scaled at 1 µM values appear next to each entry.
Write it as a number; the unit mL/min/kg goes unstated.

Here is how some molecules turned out for CLint scaled at 1 µM.
MOLECULE: Cc1cc(C#Cc2cccc(F)c2)cnc1NC(=O)c1cc(NC(=O)OC(C)(C)C)ccc1Cl [Compound 14b]
UNIT: mL/min/kg
CLint scaled at 1 µM: 40

MOLECULE: Cc1cc(C#Cc2ccccc2)cnc1NC(=O)c1cc(NC(=O)C2CC2)ccc1Cl [Compound 15a]
UNIT: mL/min/kg
CLint scaled at 1 µM: 69

MOLECULE: Cc1cc(C#Cc2ccccc2F)cnc1NC(=O)c1cc(NC(=O)OC(C)(C)C)ccc1Cl [Compound 14a]
UNIT: mL/min/kg
CLint scaled at 1 µM: 13

Sure, the documented CLint scaled at 1 µM for CC(C)(C)OC(=O)Nc1ccc(Cl)c(C(=O)Nc2ncc(C#Cc3ccccc3)cc2F)c1 [Compound 13a] is 6

For this molecule ( Cc1cc(C#Cc2ccccc2)cnc1NC(=O)c1cc(NC(=O)OC(C)(C)C)ccc1Cl ), measured CLint scaled at 1 µM is 34

Reported CLint scaled at 1 µM ( Cc1cc(C#Cc2ccc(F)cc2)cnc1NC(=O)c1cc(NC(=O)OC(C)(C)C)ccc1Cl [Compound 14c] ) = 13

Query Cc1cc(C#Cc2ccncc2)cnc1NC(=O)c1cc(NC(=O)OC(C)(C)C)ccc1Cl [Compound 14d] yields CLint scaled at 1 µM of 78

Recorded CLint scaled at 1 µM (molecule Cc1cc(C#Cc2ccc(F)cc2)cnc1NC(=O)c1cc(NC(=O)C2CC2)ccc1Cl [Compound 15b] ): 50
